system: T-47D spheroids with HUVEC/MSC, viability; assay: Anticancer human tumor T-47D cell line growth inhibition [PI3K]; details: second compound 0.1 µM; first compound 1 µM; active compounds read low;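 note: spheroids exposed to agents for seven days before reading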
Field: label. Allowed values: y (viability, T/C < 80%) or n (viability, T/C >= 80%).

A record lists CCN1CCN(Cc2ccc(Nc3ncc(F)c(-c4cc(F)c5nc(C)n(C(C)C)c5c4)n3)nc2)CC1 + COc1c(OCCCN2CCOCC2)ccc2c3n(c(=NC(=O)c4cnc(N)nc4)nc12)CCN3 . Is its viability, T/C below 80%?
y

Consider CCCS(=O)(=O)Nc1ccc(F)c(C(=O)c2c[nH]c3ncc(-c4ccc(Cl)cc4)cc23)c1F + COc1c(OCCCN2CCOCC2)ccc2c3n(c(=NC(=O)c4cnc(N)nc4)nc12)CCN3 . Does its viability, T/C lie strictly below 80%?
y

Problem: For the compound CC(C)NCC(C(=O)N1CCN(c2ncnc3c2C(C)CC3O)CC1)c1ccc(Cl)cc1 (stereo unspecified) + CC(Nc1ccc2c(c1)OCCn1cc(N3C(=O)OCC3C(F)F)nc1-2)C(N)=O , is viability, T/C under 80%?
y

Below 80% on viability, T/C? Entry Cn1nccc1Nc1nccc(-c2ccn(C(CO)c3ccc(Cl)c(F)c3)c(=O)c2)n1 (stereo unspecified) + COc1c(OCCCN2CCOCC2)ccc2c3n(c(=NC(=O)c4cnc(N)nc4)nc12)CCN3
y

Hello, I'm reviewing records and need to know if viability, T/C of Cn1ncc(Cl)c1-c1cc(C(=O)NC(CN)Cc2cccc(F)c2)sc1Cl (stereo unspecified) + CC(Nc1ncnc2nc[nH]c12)c1cc2cccc(Cl)c2c(=O)n1-c1ccccc1 is below 80%. Could you check?
y

Bench note: check whether CNC(=O)c1ccc(N2C(=S)N(c3ccc(C#N)c(C(F)(F)F)c3)C(=O)C2(C)C)cc1F + Cc1nc(NC(=O)N2CCCC2C(N)=O)sc1-c1ccnc(C(C)(C)C(F)(F)F)c1 shows viability, T/C below 80%
n

Please indicate whether the reported viability, T/C of Cn1nccc1Nc1nccc(-c2ccn(C(CO)c3ccc(Cl)c(F)c3)c(=O)c2)n1 (stereo unspecified) + CC(Nc1ncnc2nc[nH]c12)c1cc2cccc(Cl)c2c(=O)n1-c1ccccc1 is strictly below 80%.
n

Would you kindly verify if viability, T/C of CC1(C)CCC(CN2CCN(c3ccc(C(=O)NS(=O)(=O)c4ccc(NCC5CCOCC5)c([N+](=O)[O-])c4)c(Oc4cnc5[nH]ccc5c4)c3)CC2)=C(c2ccc(Cl)cc2)C1 + CC(Nc1ccc2c(c1)OCCn1cc(N3C(=O)OCC3C(F)F)nc1-2)C(N)=O is strictly less than 80%?
n

Quick check: does CC(C)NCC(C(=O)N1CCN(c2ncnc3c2C(C)CC3O)CC1)c1ccc(Cl)cc1 (stereo unspecified) + COc1c(OCCCN2CCOCC2)ccc2c3n(c(=NC(=O)c4cnc(N)nc4)nc12)CCN3 have viability, T/C under 80%?
y

Strictly below 80% in viability, T/C? CCCS(=O)(=O)Nc1ccc(F)c(C(=O)c2c[nH]c3ncc(-c4ccc(Cl)cc4)cc23)c1F + Cc1nc(NC(=O)N2CCCC2C(N)=O)sc1-c1ccnc(C(C)(C)C(F)(F)F)c1
n

Please indicate whether the reported viability, T/C of CCN1CCN(Cc2ccc(Nc3ncc(F)c(-c4cc(F)c5nc(C)n(C(C)C)c5c4)n3)nc2)CC1 + CC(Nc1ccc2c(c1)OCCn1cc(N3C(=O)OCC3C(F)F)nc1-2)C(N)=O is strictly below 80%.
y

State whether 80% exceeds viability, T/C recorded for CC1(C)CCC(Nc2ncc(C(F)(F)F)c(-c3c[nH]c4c(P(C)(C)=O)c(C#N)ccc34)n2)CN1 (stereo unspecified) + COc1c(OCCCN2CCOCC2)ccc2c3n(c(=NC(=O)c4cnc(N)nc4)nc12)CCN3 .
y

Here's an entry: CNC(=O)c1ccc(N2C(=S)N(c3ccc(C#N)c(C(F)(F)F)c3)C(=O)C2(C)C)cc1F + CC(Nc1ccc2c(c1)OCCn1cc(N3C(=O)OCC3C(F)F)nc1-2)C(N)=O . Is its viability, T/C below 80%?
n

is_below(viability, T/C, 80%) for CC(C)NCC(C(=O)N1CCN(c2ncnc3c2C(C)CC3O)CC1)c1ccc(Cl)cc1 (stereo unspecified) + CC(Nc1ncnc2nc[nH]c12)c1cc2cccc(Cl)c2c(=O)n1-c1ccccc1 ?
y

Given CCCS(=O)(=O)Nc1ccc(F)c(C(=O)c2c[nH]c3ncc(-c4ccc(Cl)cc4)cc23)c1F + CC(Nc1ncnc2nc[nH]c12)c1cc2cccc(Cl)c2c(=O)n1-c1ccccc1 , is recorded viability, T/C strictly lower than 80%?
n

Dear reviewer, please state whether C=CC(=O)N1CCN(c2nc(=O)n(-c3c(C)ccnc3C(C)C)c3nc(-c4c(O)cccc4F)c(F)cc23)C(C)C1 (stereo unspecified) + COc1c(OCCCN2CCOCC2)ccc2c3n(c(=NC(=O)c4cnc(N)nc4)nc12)CCN3 has viability, T/C strictly beneath 80%.
y

Hi there! Is viability, T/C for CC(Cn1ccc(-c2ccc(C#N)c(Cl)c2)n1)NC(=O)c1cc(C(C)O)[nH]n1 (stereo unspecified) + COc1c(OCCCN2CCOCC2)ccc2c3n(c(=NC(=O)c4cnc(N)nc4)nc12)CCN3 below 80%, do you know?
y

# TODO verify viability, T/C < 80% strictly for this compound: C#Cc1c(F)ccc2cc(O)cc(-c3ncc4c(N5CC6CCC(C5)N6)nc(OCC56CCCN5CC(F)C6)nc4c3F)c12 (stereo unspecified) + COc1c(OCCCN2CCOCC2)ccc2c3n(c(=NC(=O)c4cnc(N)nc4)nc12)CCN3
y

Origin of measurements: PubChem BioAssay AID1963959
